Every entry's value here was drawn from ChEMBL document CHEMBL5303304.

# Test system: U2OS
# protocol-summary: Incucyte cell viability with U2OS; further: unitless GR value; below 1 slowed growth and below 0 cell loss
# Assay type: toxicity, cell-based
# measurement-context: human, 12 h, 10 µM, compound concentration 10 uM, replicate number 2
# Lookup of reported Growth Rate keyed by entry

// worked examples, Growth Rate included
CCC(=N\O)/C(C)=C/c1ccc(F)cc1; 0.89
Cl.Cl.O=C1c2ccccc2C(Cc2ccncc2)(Cc2ccncc2)c2ccccc21; 0.75
CCCCCCC(Sc1nc(Cl)cc(NCc2ccc(-c3ccccc3)cc2)n1)C(=O)O (stereo unspecified); 0.97

INPUT: I'm curious: which Growth Rate was measured for CCOC(=O)C1=C[C@]2(CC)CCCN3CCc4c(n1c1ccccc41)[C@@H]32 tested on U2OS?
OUTPUT: 0.83

INPUT: I'm curious: which Growth Rate was measured for C[C@H](C[C@H](N)C(=O)O)C(=O)O [2S,4R-4-METHYLGLUTAMATE] tested on U2OS?
OUTPUT: 0.89

INPUT: I'm curious: which Growth Rate was measured for CCOC(=O)c1cc2cc(-c3cc(C(=O)NCc4ccc(C(=O)O)cc4)nn3C)ccc2[nH]1 tested on U2OS?
OUTPUT: 0.96

INPUT: I'm curious: which Growth Rate was measured for O=C1CN(c2ccccc2F)C(NCCN2CCOCC2)=C1c1nc2cc(Br)ccc2c(=O)[nH]1 tested on U2OS?
OUTPUT: 0.96

INPUT: I'm curious: which Growth Rate was measured for CN1CCC[C@H]1c1cccnc1 tested on U2OS?
OUTPUT: 0.66

INPUT: I'm curious: which Growth Rate was measured for O=C(O)c1ccc(CN2C[C@@H]3C[C@H]2CN3Cc2ccc(Oc3ccc(-c4ncco4)cc3)cc2)cc1 tested on U2OS?
OUTPUT: 0.49

INPUT: I'm curious: which Growth Rate was measured for O=C1COc2cc(C(=O)N(Cc3ccc(C(=O)Nc4ccncn4)cc3)C3CC3)ccc2N1 tested on U2OS?
OUTPUT: 0.8

INPUT: I'm curious: which Growth Rate was measured for CN[C@@H](C)C(=O)N[C@H](C(=O)N1CCC[C@H]1C(=O)N[C@H]1c2ccccc2C[C@H]1OCC#CC#CCO[C@@H]1Cc2ccccc2[C@@H]1NC(=O)[C@@H]1CCCN1C(=O)[C@@H](NC(=O)[C@H](C)NC)C1CCCCC1)C1CCCCC1 tested on U2OS?
OUTPUT: 0.86

INPUT: I'm curious: which Growth Rate was measured for CC(C)C(=O)N[C@@H]1CCN(C(=O)Nc2nc3c(s2)-c2nc(-c4ccccc4Cl)ncc2CC3)C1 tested on U2OS?
OUTPUT: 0.9

INPUT: I'm curious: which Growth Rate was measured for Cc1cc(C)cc(C(=O)NOCCCCCC(=O)NO)c1 tested on U2OS?
OUTPUT: 0.58

INPUT: I'm curious: which Growth Rate was measured for CC(C)n1cnc2c(Nc3cccc(Cl)c3)nc(N[C@H]3CCCC[C@@H]3N)nc21 tested on U2OS?
OUTPUT: -0.22

INPUT: I'm curious: which Growth Rate was measured for CC(C)[C@H](CO)Nc1nc(Nc2ccc(C(=O)O)c(Cl)c2)c2ncn(C(C)C)c2n1 tested on U2OS?
OUTPUT: 0.95

INPUT: I'm curious: which Growth Rate was measured for N#Cc1ccnc(Nc2cc(C3CCN(C4COC4)CC3)cc(N3CCC(F)(F)C3)n2)c1 tested on U2OS?
OUTPUT: 0.38

INPUT: I'm curious: which Growth Rate was measured for Cc1csc(-c2nnc(Nc3ccc(Oc4ncccc4-c4ccnc(N)n4)cc3)c3ccccc23)c1 tested on U2OS?
OUTPUT: 0.16

INPUT: I'm curious: which Growth Rate was measured for CO[C@H](C)CN1CC[C@@]2(C)c3ccc(O)cc3C[C@@H]1C2(C)C.Cl tested on U2OS?
OUTPUT: 0.77
